Reference source: patent US20040072992A1

# Test name: Anti-cancer activity, SR-BR-3
# Assay type: cell-based, human
# Run conditions: SR-BR-3, breast cancer; read-out: LC50 (the source's name)
Where no end group is shown, it is not given here.
Measurement kind: CC50 (µM)

Record sequence | Measured number
KNWKGIAGMAKKLLGKNWKLM [mast21, reference compound] | 90
RNWRGIAGMARRLLGRNWRLM [mast21R] | 90

====

# Test system: S. aureus IFO13276
# Run conditions: IFO13276, 18 h
Where a SMILES comes first, the peptide text is derived from it.
# key: entry, value: MIC

Compound | MIC
CC(C)C[C@H](NC(=O)[C@H](C)N)C(=O)N[C@@H](CCCNC(=N)N)C(=O)O [ALR] (H-Ala-Leu-Arg-OH) | >200 µM
CC(C)[C@H](NC(=O)[C@@H](N)CCCNC(=N)N)C(=O)NCC(=O)O [RVG] (H-Arg-Val-Gly-OH) | >800 µM
CC(C)[C@H](NC(=O)[C@@H](N)CCCCN)C(=O)NCC(=O)O [KVG] (H-Lys-Val-Gly-OH) | >800 µM
CC(C)C[C@H](NC(=O)[C@@H](NC(=O)[C@@H](N)CCCCN)C(C)C)C(=O)O [KVL] (H-Lys-Val-Leu-OH) | 800 µM
CC(C)C[C@H](NC(=O)[C@@H](NC(=O)[C@@H](N)CCCNC(=N)N)C(C)C)C(=O)O [RVL] (H-Arg-Val-Leu-OH) | >800 µM

====

# Test name: Anti-cancer activity, A549
# Assay type: cell-based, human
# Run conditions: A549, lung cancer; read-out: LC50 (the source's name)
Where no end group is shown, it is not given here.
# key: entry, value: CC50
Measurement kind: CC50

Record sequence | Result
RNWRGIAGMARRLLGRNWRLM [mast21R] | 50 µM
KNWKGIAGMAKKLLGKNWKLM [mast21, reference compound] | 70 µM

====

# Test name: Anti-cancer activity, HCT-15
# Type: cell-based, human
# Run conditions: human, HCT-15 cells (large intestine cancer cells); HCT-15, large intestine cancer; read-out: LC50
Where no end group is shown, it is not given here.
# key: entry, value: CC50 at 2 days

Record sequence | CC50 at 2 days
KVLKVLKVLKVLKVLKVL [KVL6, KVLKVLKVLKVLKVLKVL] | 80 µM
ALRALRALRALRALRALR [ALR6, ALRALRALRALRALRALR] | > 100 µM

====

# Test name: Anti-cancer activity, HeLa cell
# Assay type: cell-based, human
# Run conditions: 2 days, sulforhodamine B, read-out: LC50 (the source's name)
Where no end group is shown, it is not given here.

Record sequence | CC50 / µM
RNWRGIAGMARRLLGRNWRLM [mast21R] | 20

====

# key: entry, value: CC50
# Test name: Anti-cancer activity, ACHN
# Assay type: cell-based, human
# Run conditions: kidney cancer, read-out: LC50 (the source's name)
Where no end group is shown, it is not given here.
Measurement kind: CC50 (µM)

Record sequence | Measurement kind | Measured number
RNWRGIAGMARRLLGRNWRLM [mast21R] | CC50 | 30
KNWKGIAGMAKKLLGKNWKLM [mast21, reference compound] | CC50 | 80

====

# Test name: Anti-cancer activity, LK-2
# Type: cell-based, human
# Run conditions: human, LK-2 cells (lung cancer cells); LK-2, lung cancer; read-out: LC50
Where no end group is shown, it is not given here.

Record sequence | CC50 at 2 days
KVLKVLKVLKVLKVLKVL [KVL6, KVLKVLKVLKVLKVLKVL] | > 100 µM
ALRALRALRALRALRALR [ALR6, ALRALRALRALRALRALR] | > 100 µM

====

# key: entry, value: LC50 at 2 days
# Test name: Anti-cancer activity, SH-10-TC
# Type: cell-based, human
# Run conditions: human, SH-10-TC cells (stomach cancer cells)
Where no end group is shown, it is not given here.
Measurement kind: LC50 at 2 days (µM)

Record sequence | Measurement kind | Unit of measure | Censor symbol | Measured number
ALRALRALRALRALRALR [ALR6, ALRALRALRALRALRALR] | LC50 at 2 days | µM | > | 100
KVLKVLKVLKVLKVLKVL [KVL6, KVLKVLKVLKVLKVLKVL] | LC50 at 2 days | µM | = | 60

====

# Test name: Anti-cancer activity, 5637 cell
# Format: cell-based, human
# Run conditions: bladder cancer, read-out: LC50 (the source's name)
Where no end group is shown, it is not given here.
# key: entry, value: CC50

Record sequence | Unit of measure | Censor symbol | CC50
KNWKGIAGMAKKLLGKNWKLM [mast21, reference compound] | µM | > | 100
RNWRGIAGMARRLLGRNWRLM [mast21R] | µM | = | 50

====

# Test name: Anti-cancer activity, colo205
# Type: cell-based, human
# Run conditions: colo205, large intestine cancer; read-out: LC50 (the source's name)
Where no end group is shown, it is not given here.
Measurement kind: CC50

Record sequence | Measurement kind | Result
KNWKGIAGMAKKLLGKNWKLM [mast21, reference compound] | CC50 | > 100 µM
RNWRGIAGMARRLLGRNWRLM [mast21R] | CC50 | 50 µM

====

# Test name: Anti-cancer activity, SH-10-TC
# Format: cell-based, human
# Run conditions: stomach cancer
Where no end group is shown, it is not given here.

Record sequence | LC50 [µM]
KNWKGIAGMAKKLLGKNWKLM [mast21, reference compound] | 90
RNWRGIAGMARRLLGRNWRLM [mast21R] | 60

====

# Test name: Anti-cancer activity, NIH OVCAR-3
# Format: cell-based, human
# Run conditions: human, NIH OVCAR-3 cells (ovarian cancer cells); NIH OVCAR-3, ovarian cancer; read-out: LC50
# Description: Anti-cancer activity was evaluated using a method complying with an anti-cancer agent screening method (1990) using a human cancer cell panel which has been carried out by U.S. National Cancer Institute (NCI). Cells employed in experiments were from the following three cell lines: HL60 cell (cell line derived from human leukemia); HeLa cell (cell line derived from human uterine cancer); and HCT116 cell (cell line derived from human large intestine cancer). […]
Where no end group is shown, it is not given here.
Measurement kind: CC50 at 2 days

Record sequence | Result
KVLKVLKVLKVLKVLKVL [KVL6, KVLKVLKVLKVLKVLKVL] | > 100 µM
ALRALRALRALRALRALR [ALR6, ALRALRALRALRALRALR] | > 100 µM

====

# Test name: Anti-cancer activity, HL60 cell
# Type: cell-based, human
# Run conditions: 2 days, sulforhodamine B
Where no end group is shown, it is not given here.

Record sequence | LC50
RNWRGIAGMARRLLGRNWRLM [mast21R] | 20 µM

====

# System: erythrocytes
# Run conditions: red cells of human, 100 μM
Where no end group is shown, it is not given here.
# key: entry, value: Hemolytic property (relative value)

Substance | Subject of test | Hemolytic property (relative value) (%)
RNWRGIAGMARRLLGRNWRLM [mast21R] | erythrocytes | 13
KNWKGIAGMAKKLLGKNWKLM-NH2 [mast21N] | erythrocytes | 13
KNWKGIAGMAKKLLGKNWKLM [mast21, reference compound] | erythrocytes | 5.4
INWKGIAAMAKKLL [mastoparanX, INWKGIAAMAKKLL, reference compound] | erythrocytes | 93

====

# Test name: Anti-cancer activity, KATO III cell
# Format: cell-based, human
# Run conditions: human, KATO III cells (stomach cancer cells), read-out: LC50
# Description: Anti-cancer activity was evaluated using a method complying with an anti-cancer agent screening method (1990) using a human cancer cell panel which has been carried out by U.S. National Cancer Institute (NCI). Cells employed in experiments were from the following three cell lines: HL60 cell (cell line derived from human leukemia); HeLa cell (cell line derived from human uterine cancer); and HCT116 cell (cell line derived from human large intestine cancer). […]
Where no end group is shown, it is not given here.

Record sequence | Unit of measure | Censor symbol | CC50 at 2 days
ALRALRALRALRALRALR [ALR6, ALRALRALRALRALRALR] | µM | > | 100
KVLKVLKVLKVLKVLKVL [KVL6, KVLKVLKVLKVLKVLKVL] | µM | = | 100

====

# Test system: E. coli JCM1649
# Run conditions: JCM1649, 18 h
Where no end group is shown, it is not given here.
# key: entry, value: log10 MIC
Measurement kind: log10 MIC (log10 of the value in µM)

Substance | Subject of test | Measured number
ALRALRALRALRALR [ALR5, ALRALRALRALRALR] | E. coli JCM1649 | 2.00
KNRKGIAGMAKKLLGNKWKLM [mastWR] | E. coli JCM1649 | 1.70
INWKGIAAMAKKLL [mastoparanX, INWKGIAAMAKKLL, reference compound] | E. coli JCM1649 | 0.49
KVLINWKGIAAMAKKII [KVL-mastX, KVL INWKGIAAMAKKII] | E. coli JCM1649 | 2.00
KVLKVLKVLKVLKVL [KVL5, KVLKVLKVLKVLKVL] | E. coli JCM1649 | 1.10
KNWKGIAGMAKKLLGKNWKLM-NH2 [mast21N] | E. coli JCM1649 | 0.49
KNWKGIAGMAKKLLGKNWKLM [mast21, reference compound] | E. coli JCM1649 | 0.80
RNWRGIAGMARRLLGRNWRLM [mast21R] | E. coli JCM1649 | 0.49
